Hi there, I'd appreciate the recorded pIC50 for every entry that follows.
test system: ONS-76; experiment: cells; type: functional, cell-based, Homo sapiens; conditions: Homo sapiens, ONS-76;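 note: growth inhibition of human ONS-76 cells, read out with a cell viability assay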
Description: SANGER: Inhibition of human ONS-76 cell growth in a cell viability assay.
The scale used: pIC50 is minus the common logarithm of the concentration in molar units.

Reported ONS-76 pIC50 for item CCC1=C[C@@H]2CN(C1)Cc1c([nH]c3ccccc13)[C@@](C(=O)OC)(c1cc3c(cc1OC)N(C)[C@H]1[C@@](O)(C(=O)OC)[C@H](OC(C)=O)[C@]4(CC)C=CCN5CC[C@]31[C@@H]54)C2 was 8.48

Reported ONS-76 pIC50 for item COc1cc(F)c(F)c(Nc2ccc(I)cc2F)c1NS(=O)(=O)C1(CC(O)CO)CC1 (configuration not stated) was 6.30

Reported ONS-76 pIC50 for item COc1cc([C@@H]2c3cc4c(cc3[C@@H](O[C@@H]3O[C@@H]5CO[C@@H](C)O[C@H]5[C@H](O)[C@H]3O)[C@H]3COC(=O)[C@H]23)OCO4)cc(OC)c1O [ETOPOSIDE] was 6.12

###

test system: COLO-680N; assay: cells; assay type: functional, cell-based, Homo sapiens; settings: Homo sapiens, COLO-680N;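 note: cell viability assay used to measure inhibition of COLO-680N cell growth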
Description: SANGER: Inhibition of human COLO-680N cell growth in a cell viability assay.
measured-quantity: IC50

Please fill in: IC50 reported for COc1ccc(-c2ccc3c(N4CCOC[C@@H]4C)nc(N4CCOC[C@@H]4C)nc3n2)cc1CO [AZD-8055] = 1820 nM

Please fill in: IC50 reported for COc1cc(F)c(F)c(Nc2ccc(I)cc2F)c1NS(=O)(=O)C1(CC(O)CO)CC1 (stereo not drawn) = > 5000 nM

Please fill in: IC50 reported for C[C@]1(O)C[C@@H](c2nc(-c3ccc4ccc(-c5ccccc5)nc4c3)c3c(N)nccn32)C1 [LINSITINIB] = > 2560 nM

Please fill in: IC50 reported for Cc1ccc(Nc2nccc(N(C)c3ccc4c(C)n(C)nc4c3)n2)cc1S(N)(=O)=O [PAZOPANIB] = > 8000 nM

Please fill in: IC50 reported for Nc1ccn([C@@H]2O[C@H](CO)[C@@H](O)[C@@H]2O)c(=O)n1 [CYTARABINE] = > 2000 nM

Please fill in: IC50 reported for CC(=O)O[C@@]12CO[C@@H]1C[C@H](O)[C@@]1(C)C(=O)[C@H](O)C3=C(C)[C@@H](OC(=O)[C@H](O)[C@@H](NC(=O)OC(C)(C)C)c4ccccc4)C[C@@](O)([C@@H](OC(=O)c4ccccc4)[C@H]21)C3(C)C [DOCETAXEL] = 5.08 nM

Please fill in: IC50 reported for CN(C)C/C=C/C(=O)Nc1cc2c(Nc3ccc(F)c(Cl)c3)ncnc2cc1O[C@H]1CCOC1 [AFATINIB] = > 500 nM

Please fill in: IC50 reported for COc1ccc(C2=N[C@@H](c3ccc(Cl)cc3)[C@@H](c3ccc(Cl)cc3)N2C(=O)N2CCNC(=O)C2)c(OC(C)C)c1 [NUTLIN-3] = > 8000 nM

###

tested on: ES6; assay: cells; format: functional, cell-based, Homo sapiens; conditions: Homo sapiens, ES6
Description: SANGER: Inhibition of human ES6 cell growth in a cell viability assay.
Hi there, I'd appreciate the recorded IC50 for every entry that follows.

Reported ES6 IC50 for item CC(=O)O[C@@]12CO[C@@H]1C[C@H](O)[C@@]1(C)C(=O)[C@H](O)C3=C(C)[C@@H](OC(=O)[C@H](O)[C@@H](NC(=O)OC(C)(C)C)c4ccccc4)C[C@@](O)([C@@H](OC(=O)c4ccccc4)[C@H]21)C3(C)C was > 10 nM

Reported ES6 IC50 for item O=C(NOCC1CC1)c1ccc(F)c(F)c1Nc1ccc(I)cc1Cl was > 10000 nM

Reported ES6 IC50 for item C[C@]1(O)C[C@@H](c2nc(-c3ccc4ccc(-c5ccccc5)nc4c3)c3c(N)nccn32)C1 was 911 nM

Reported ES6 IC50 for item Cc1cnc(-c2cnc(NCCNc3ccc(C#N)cn3)nc2-c2ccc(Cl)cc2Cl)[nH]1 was > 2560 nM

Reported ES6 IC50 for item COc1ccc(-c2ccc3c(N4CCOC[C@@H]4C)nc(N4CCOC[C@@H]4C)nc3n2)cc1CO was 1360 nM

Reported ES6 IC50 for item COc1cc([C@@H]2c3cc4c(cc3[C@@H](O[C@@H]3O[C@@H]5CO[C@@H](C)O[C@H]5[C@H](O)[C@H]3O)[C@H]3COC(=O)[C@H]23)OCO4)cc(OC)c1O [ETOPOSIDE] was > 16000 nM

Reported ES6 IC50 for item COc1cc(F)c(F)c(Nc2ccc(I)cc2F)c1NS(=O)(=O)C1(CC(O)CO)CC1 (configuration not stated) was > 5000 nM
